system: MALME-3M; test: in vitro melanoma cell growth inhibition (NCI screen)
Metric Name: cytotoxicity log GI50
Please answer using a numeric value trailed by its unit.

| Chemical String | System Tested | Value Reported |
| --- | --- | --- |
| O=C(NC1=C(Cl)C(=O)c2ccccc2C1=O)c1ccccc1 | MALME-3M | -4.77 M |
| COC(=O)CCC(=O)NC1=C(Nc2ccccc2)C(=O)c2ccccc2C1=O | MALME-3M | -5.76 M |
| Cc1nc2c(n1Cc1ccc(F)cc1)C(=O)c1ccccc1C2=O | MALME-3M | -5.05 M |
| O=C(O)CCCc1nc2c(n1-c1ccccc1)C(=O)c1ccccc1C2=O | MALME-3M | -4.67 M |
| COc1ccc(CNC2=C(NC(C)=O)C(=O)c3ccccc3C2=O)cc1 | MALME-3M | -5.08 M |
| Cc1nc2c(n1CCN(C)C)C(=O)c1ccccc1C2=O | MALME-3M | -5.55 M |
| CCn1c(Cc2ccc(F)cc2)nc2c1C(=O)c1ccccc1C2=O | MALME-3M | -4.94 M |
| O=C1c2ccccc2C(=O)c2[nH]c(Cc3ccc(F)cc3)nc21 | MALME-3M | -4.84 M |

Observed cytotoxicity log GI50 on MALME-3M, entry CC(=O)NC1=C(NCC(C)C)C(=O)c2ccccc2C1=O , equals -4.72 M

Measured cytotoxicity log GI50 (MALME-3M), entry CCn1c(-c2ccccc2)nc2c1C(=O)c1ccccc1C2=O : -5.06 M

I looked up CCn1c(-c2ccc(F)cc2)nc2c1C(=O)c1ccccc1C2=O and its cytotoxicity log GI50 for MALME-3M was -4.35 M

###

test system: HCT-116; test: in vitro colon cancer cell growth inhibition (NCI screen)
Metric Name: cytotoxicity log GI50 (M)
Write the answer as a number in M, unit excluded.

| Molecule | System Tested | U | cytotoxicity log GI50 |
| --- | --- | --- | --- |
| CC(=O)NC1=C(NCC(C)(C)C)C(=O)c2ccccc2C1=O [Compound 38] | HCT-116 | M | -4.47 |
| CCC(C)(C)n1c(C)nc2c1C(=O)c1ccccc1C2=O [Compound 12] | HCT-116 | M | -4.87 |
| CCNC1=C(NC(=O)CCl)C(=O)c2ccccc2C1=O [Compound 44] | HCT-116 | M | -4.74 |
| CC(=O)NC1=C(NCCO)C(=O)c2ccccc2C1=O [Compound 40] | HCT-116 | M | -4.52 |
| CCNC1=C(NC(=O)c2ccc(OC)cc2)C(=O)c2ccccc2C1=O [Compound 49] | HCT-116 | M | -4.44 |

Noted for COc1ccc(CNC2=C(NC(C)=O)C(=O)c3ccccc3C2=O)cc1 [Compound 41] : its cytotoxicity log GI50 reads -5.29

For record CC(=O)NC1=C(NCc2ccc(Cl)cc2)C(=O)c2ccccc2C1=O [Compound 42] the listed cytotoxicity log GI50 is -5.51

# cytotoxicity log GI50 of CCn1c(C)nc2c1C(=O)c1ccccc1C2=O [Compound 5] = -5.91

Short answer for CCCC(C)n1c(C)nc2c1C(=O)c1ccccc1C2=O (stereo not shown) [Compound 9] : cytotoxicity log GI50 was -5.26

###

Reported cytotoxicity log GI50 values for the following compounds.
system: KM 12; assay: in vitro colon cancer cell growth inhibition (NCI screen)
Provide a numeric answer, followed by its unit.

Worked cases, answers included:
| Chemical String | Metric Name | Value Reported |
| --- | --- | --- |
| COc1ccc(C(=O)NC2=C(Cl)C(=O)c3ccccc3C2=O)cc1 | cytotoxicity log GI50 | -5.82 M |
| COc1ccc(Cn2c(C)nc3c2C(=O)c2ccccc2C3=O)cc1 | cytotoxicity log GI50 | -5.27 M |
| COc1cc(OC)cc(C(=O)NC2=C(Cl)C(=O)c3ccccc3C2=O)c1 | cytotoxicity log GI50 | -5.92 M |
| COC(=O)CCCC(=O)NC1=C(Nc2ccccc2)C(=O)c2ccccc2C1=O | cytotoxicity log GI50 | -5.28 M |

Okay, next one:
Entry under test: CCNC1=C(NC(=O)CCl)C(=O)c2ccccc2C1=O . Its cytotoxicity log GI50 was -4.77 M

Hello, the source for this data is patent US5789431A, in case you need it.
